- studySystem: human cathepsin K (UniProt P43236, Y175D/V274L, species not given)
- procedureSummary: Cathepsin K Assay
- Assay type: biochemical
- conditionLabel: IP from dose response curve; Z-Leu-Arg-AMC substrate, pH 5.5; read-out: hrbCat K (IP (nM))
endpointName: IC50 (nM)
Report only the number, with the unit nM understood.

Query :: IC50 for N#CCNC(=O)[C@@H]1CC(F)(F)CC[C@H]1c1nn(-c2ccc(F)cc2)cc1-c1ccc(N2CCS(=O)(=O)CC2)cc1 [Example 81] ?
Result :: 0.37

Query :: IC50 for CC(=O)N1CC(c2ccc(-c3cn(-c4ccc(F)cc4)nc3[C@@H]3CCCC[C@H]3C(=O)NC3(C#N)CC3)cc2)C1 [Example 134] ?
Result :: 1.57

Query :: IC50 for COc1ccccc1-n1cc(-c2ccc(N3CCS(=O)(=O)CC3)cc2)c([C@@H]2CCCC[C@H]2C(=O)NC2(C#N)CC2)n1 [Example 92] ?
Result :: 0.95

---

So I've got a bunch of compounds here, and I need their IC50 values.
- studySystem: human cathepsin K (UniProt P43236, Y175D/V274L, species not given)
- procedureSummary: Cathepsin K Assay
- Type: biochemical
- conditionLabel: IP from dose response curve; Z-Leu-Arg-AMC substrate, pH 5.5; read-out: hrbCat K (IP (nM))
Note to self: number, then unit, no commentary.

Query :: IC50 for "N#CC1(NC(=O)[C@@H]2CCCC[C@H]2c2nn(-c3ccc4[nH]ccc4c3)cc2-c2ccc(N3CCS(=O)(=O)CC3)cc2)CC1" ?
Result :: 8.43 nM

Query :: IC50 for "N#Cc1ccc(-n2cc(-c3ccc(N4CCS(=O)(=O)CC4)cc3)c([C@@H]3CCCC[C@H]3C(=O)NC3(C#N)CC3)n2)c(Cl)c1" ?
Result :: 2.02 nM

Query :: IC50 for CN=S1(=O)CCN(c2ccc(-c3cn(-c4ccc(F)cn4)nc3[C@@H]3CC[C@H](F)C[C@H]3C(=O)NC3(C#N)CC3)cc2)CC1 [Example 37] ?
Result :: 1.76 nM

Query :: IC50 for CC(C#N)NC(=O)[C@@H]1CCC(F)(F)C[C@H]1c1nn(-c2ccc(F)cn2)cc1-c1ccc(N2CCS(=N)(=O)CC2)cc1 (single isomer, unassigned) [Example 23] ?
Result :: 1.07 nM

Query :: IC50 for "N#CC1(NC(=O)[C@@H]2CCCC[C@H]2c2nn(-c3ccc(F)cc3)cc2-c2ccc(C(=O)N3CCOCC3)cc2)CC1" ?
Result :: 6.9 nM

Query :: IC50 for "N#CC1(NC(=O)[C@@H]2CCCC[C@H]2c2nn(-c3cc(F)ccc3F)cc2-c2ccc(N3CCS(=O)(=O)CC3)cc2)CC1" ?
Result :: 1.06 nM

---

- studySystem: human cathepsin K (UniProt P43236, Y175D/V274L, species not given)
- procedureSummary: Cathepsin K Assay
- Type: biochemical
- conditionLabel: IP from dose response curve; Z-Leu-Arg-AMC substrate, pH 5.5; read-out: hrbCat K (IP (nM))
Threshold 5 nM: IC50 strictly smaller gives met, otherwise not met.

Query :: Criterion: IC50 strictly below 5 nM. Is it met by "C[C@@H](C#N)NC(=O)[C@@H]1CCC(F)(F)C[C@H]1c1nn(-c2ncccc2F)cc1-c1ccc(N2CCS(=N)(=O)CC2)cc1" ?
Result :: not met

Query :: Criterion: IC50 strictly below 5 nM. Is it met by "COc1ccc(-n2cc(-c3ccc(N4CCS(=O)(=O)CC4)cc3)c([C@@H]3CCCC[C@H]3C(=O)NC3(C#N)CC3)n2)cn1" ?
Result :: met

Query :: Criterion: IC50 strictly below 5 nM. Is it met by "N#CC1(NC(=O)[C@@H]2CCC(F)(F)C[C@H]2c2nn(-c3ncccc3F)cc2-c2ccc(N3CCS(=O)(=O)CC3)cc2)CC1" ?
Result :: not met

Query :: Criterion: IC50 strictly below 5 nM. Is it met by "N#CC1(F)CCN(c2ccc(-c3cn(-c4ccc(F)cc4)nc3[C@@H]3CCCC[C@H]3C(=O)NC3(C#N)CC3)cc2)CC1" ?
Result :: not met

Query :: Criterion: IC50 strictly below 5 nM. Is it met by "N#CC1(NC(=O)[C@@H]2CC(F)(F)CC[C@H]2c2nn3ccccc3c2-c2ccc(N3CCS(=O)(=O)CC3)cc2)CC1" ?
Result :: met

---

- studySystem: human cathepsin F (Homo sapiens)
- Sequence (Q9UBX1 271-484): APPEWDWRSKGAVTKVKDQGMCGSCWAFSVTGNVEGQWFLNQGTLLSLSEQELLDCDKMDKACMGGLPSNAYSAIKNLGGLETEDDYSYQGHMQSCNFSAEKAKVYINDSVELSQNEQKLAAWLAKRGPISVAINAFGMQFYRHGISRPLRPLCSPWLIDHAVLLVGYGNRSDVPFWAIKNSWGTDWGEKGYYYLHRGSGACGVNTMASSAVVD
- procedureSummary: Cathepsin F Assay
- Type: biochemical
- conditionLabel: IP from dose response curve; Z-Phe-Arg-AMC substrate, pH 5.5; read-out: hCat F (IP (nM))
So I've got a bunch of molecules here, and I need their IC50 values.
Report only the number, with the unit nM understood.

Query :: IC50 for "N#CC1(NC(=O)[C@@H]2CCCC[C@H]2c2nn(-c3cccnn3)cc2-c2ccc(N3CCS(=O)(=O)CC3)cc2)CC1" ?
Result :: 751

Query :: IC50 for "N#CC1(NC(=O)[C@@H]2CCC(F)(F)C[C@H]2c2nn(-c3ccc(F)cn3)cc2-c2ccc(N3CCS(=N)(=O)CC3)cc2)CC1" ?
Result :: 1820

Query :: IC50 for N#CC1(NC(=O)[C@@H]2CC3CC3C[C@H]2c2nn(-c3ccc(Cl)cn3)cc2-c2ccc(N3CCS(=O)(=O)CC3)cc2)CC1 (single isomer, unassigned) [Example 154] ?
Result :: 279

Query :: IC50 for N#CC1(NC(=O)C2CC(F)(F)CCC2c2nn(-c3ccc(F)cc3)cc2-c2ccc(N3CCS(=O)(=O)CC3)cc2)CC1 (racemic) ?
Result :: 35

Query :: IC50 for "Cc1c(-c2ccc(N3CCS(=O)(=O)CC3)cc2)c([C@@H]2CCCC[C@H]2C(=O)NC2(C#N)CC2)nn1-c1ncccc1F" ?
Result :: 5390

Query :: IC50 for "C[C@@H](C#N)NC(=O)[C@@H]1C[C@@H](F)CC[C@H]1c1nn(-c2ncccc2F)cc1-c1ccc(N2CCS(=N)(=O)CC2)cc1" ?
Result :: 7770

Query :: IC50 for "COc1ccc(-n2cc(-c3ccc(N4CCS(=O)(=O)CC4)cc3)c([C@@H]3CCCC[C@H]3C(=O)NC3(C#N)CC3)n2)cn1" ?
Result :: 763

Query :: IC50 for N#CC(CC(F)(F)F)NC(=O)[C@@H]1CC(F)(F)CC[C@H]1c1nn2ccccc2c1-c1ccc(N2CCS(=O)(=O)CC2)cc1 (single isomer, unassigned) [Example 75] ?
Result :: 21

Query :: IC50 for "N#Cc1ccc(-n2cc(-c3ccc(N4CCS(=O)(=O)CC4)cc3)c([C@@H]3CCCC[C@H]3C(=O)NC3(C#N)CC3)n2)c(F)c1" ?
Result :: 733

Query :: IC50 for "N#Cc1cccc(-n2cc(-c3ccc(N4CCS(=O)(=O)CC4)cc3)c([C@@H]3CCCC[C@H]3C(=O)NC3(C#N)CC3)n2)c1" ?
Result :: 452

Query :: IC50 for CS(=O)(=O)c1ccc(-c2cn(-c3ccc4ccccc4c3)nc2C2CCC(F)(F)CC2C(=O)NCC#N)cc1 (racemic) ?
Result :: 4

Query :: IC50 for "CC(C)[C@@H](C#N)NC(=O)[C@@H]1CC(F)(F)CC[C@H]1c1nn(-c2ccc(F)cc2)c(CO)c1-c1ccc(N2CCS(=O)(=O)CC2)cc1" ?
Result :: 98

---

- studySystem: human cathepsin K (UniProt P43236, Y175D/V274L, species not given)
- procedureSummary: Cathepsin K Assay
- Assay type: biochemical
- conditionLabel: IP from dose response curve; Z-Leu-Arg-AMC substrate, pH 5.5; read-out: hrbCat K (IP (nM))
Threshold 2 nM: IC50 strictly smaller gives True, otherwise False.

Query :: Criterion: IC50 strictly below 2 nM. Is it met by "CN=S1(=O)CCN(c2ccc(-c3cn(-c4ccc(F)cn4)nc3[C@@H]3CC(F)(F)CC[C@H]3C(=O)NC3(C#N)CC3)cc2)CC1" ?
Result :: False

Query :: Criterion: IC50 strictly below 2 nM. Is it met by "N#CC1(NC(=O)[C@@H]2CCCC[C@H]2c2nn(-c3ccc(F)cc3)cc2-c2ccc(C(=O)N3CCC(O)CC3)cc2)CC1" ?
Result :: False

Query :: Criterion: IC50 strictly below 2 nM. Is it met by "N#CC1(NC(=O)[C@@H]2CCCC[C@H]2c2nn(-c3cc(F)c(F)c(F)c3)cc2-c2ccc(N3CCS(=O)(=O)CC3)cc2)CC1" ?
Result :: True

Query :: Criterion: IC50 strictly below 2 nM. Is it met by "N#CC1(NC(=O)[C@@H]2CCCC[C@H]2c2nn(-c3cc(F)cnc3F)cc2-c2ccc(N3CCS(=O)(=O)CC3)cc2)CC1" ?
Result :: False

Query :: Criterion: IC50 strictly below 2 nM. Is it met by "N#CC1(NC(=O)[C@@H]2C[C@@H](F)CC[C@H]2c2nn(-c3ccc(F)cc3)cc2-c2ccc(N3CCS(=N)(=O)CC3)cc2)CC1" ?
Result :: False

Query :: Criterion: IC50 strictly below 2 nM. Is it met by "COc1ccc(-n2cc(-c3ccc(N4CCS(=O)(=O)CC4)cc3)c([C@@H]3CCCC[C@H]3C(=O)NC3(C#N)CC3)n2)cc1" ?
Result :: True

Query :: Criterion: IC50 strictly below 2 nM. Is it met by "N#CC1(NC(=O)[C@@H]2CCCC[C@H]2c2nn(-c3cccc(C(F)(F)F)c3)cc2-c2ccc(N3CCS(=O)(=O)CC3)cc2)CC1" ?
Result :: True

Query :: Criterion: IC50 strictly below 2 nM. Is it met by "N#CC1(NC(=O)[C@@H]2CCCC[C@H]2c2nn(-c3ccccc3OC(F)(F)F)cc2-c2ccc(N3CCS(=O)(=O)CC3)cc2)CC1" ?
Result :: False

Query :: Criterion: IC50 strictly below 2 nM. Is it met by "N#CC1(NC(=O)[C@@H]2CC(F)(F)CC[C@H]2c2nn(-c3ccc(F)cn3)c(CF)c2-c2ccc(N3CCS(=O)(=O)CC3)cc2)CC1" ?
Result :: True

Query :: Criterion: IC50 strictly below 2 nM. Is it met by "C[C@@H](C#N)NC(=O)[C@@H]1CC(F)(F)CC[C@H]1c1nn(-c2ccc(F)cc2)c(CO)c1-c1ccc(N2CCS(=O)(=O)CC2)cc1" ?
Result :: True

Query :: Criterion: IC50 strictly below 2 nM. Is it met by "N#CC1(NC(=O)[C@@H]2CCCC[C@H]2c2nn(-c3ccc(OC(F)F)cc3)cc2-c2ccc(N3CCS(=O)(=O)CC3)cc2)CC1" ?
Result :: True

Query :: Criterion: IC50 strictly below 2 nM. Is it met by "CC(C)N=S1(=O)CCN(c2ccc(-c3cn(-c4ccc(F)cc4)nc3[C@@H]3CCCC[C@H]3C(=O)NC3(C#N)CC3)cc2)CC1" ?
Result :: True

Query :: Criterion: IC50 strictly below 2 nM. Is it met by "N#CC1(NC(=O)[C@@H]2CCCC[C@H]2c2nn(-c3ccccc3F)cc2-c2ccc(N3CCS(=O)(=O)CC3)cc2)CC1" ?
Result :: True
